parameter measured: IC50

Tell me IC50 of COc1cc2nccc(Oc3ccc(NC(=O)C4(C(=O)Nc5ccc(F)cc5)CC4)cc3)c2cc1OC [cabozantinib] when tested on FGFR1 (Homo sapiens). > 3 µM

====

target under test: PDGFRA (Homo sapiens)
Sequence (P16234 24-1089): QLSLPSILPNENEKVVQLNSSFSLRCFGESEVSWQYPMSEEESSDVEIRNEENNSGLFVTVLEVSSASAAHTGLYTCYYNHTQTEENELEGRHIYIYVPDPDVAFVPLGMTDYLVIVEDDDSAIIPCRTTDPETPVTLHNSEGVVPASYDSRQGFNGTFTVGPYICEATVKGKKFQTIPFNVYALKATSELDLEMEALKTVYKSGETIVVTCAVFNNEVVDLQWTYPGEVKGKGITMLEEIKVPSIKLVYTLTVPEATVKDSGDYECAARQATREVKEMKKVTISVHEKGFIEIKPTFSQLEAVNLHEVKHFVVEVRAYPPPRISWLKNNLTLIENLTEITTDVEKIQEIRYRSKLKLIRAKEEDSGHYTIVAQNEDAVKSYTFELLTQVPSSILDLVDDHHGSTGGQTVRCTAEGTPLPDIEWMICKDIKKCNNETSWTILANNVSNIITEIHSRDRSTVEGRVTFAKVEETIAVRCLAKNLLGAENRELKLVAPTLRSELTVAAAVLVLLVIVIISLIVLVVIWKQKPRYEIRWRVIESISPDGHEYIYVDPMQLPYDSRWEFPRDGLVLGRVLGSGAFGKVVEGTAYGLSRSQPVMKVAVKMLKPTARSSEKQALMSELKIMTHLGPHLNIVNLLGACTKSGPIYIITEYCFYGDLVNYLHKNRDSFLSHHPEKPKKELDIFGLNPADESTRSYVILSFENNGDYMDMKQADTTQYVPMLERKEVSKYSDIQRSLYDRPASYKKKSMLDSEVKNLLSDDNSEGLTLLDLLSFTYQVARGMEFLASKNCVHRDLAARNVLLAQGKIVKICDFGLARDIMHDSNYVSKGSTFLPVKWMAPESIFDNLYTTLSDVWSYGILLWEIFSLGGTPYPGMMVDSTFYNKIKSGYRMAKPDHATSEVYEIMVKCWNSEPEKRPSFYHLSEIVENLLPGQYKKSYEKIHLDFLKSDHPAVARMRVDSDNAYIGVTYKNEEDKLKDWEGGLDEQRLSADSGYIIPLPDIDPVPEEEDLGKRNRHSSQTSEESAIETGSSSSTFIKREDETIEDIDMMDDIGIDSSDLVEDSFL
parameter measured: IC50 (nM)
Quick note: give the figure in nM, leave out the unit.

Please give measured IC50 of the following entry: COc1cc2nccc(Oc3ccc(NC(=O)C4(C(=O)Nc5ccc(F)cc5)CC4)cc3)c2cc1OC [cabozantinib] 414

====

target under test: NTRK2 (Homo sapiens)
Sequence (Q16620 32-822): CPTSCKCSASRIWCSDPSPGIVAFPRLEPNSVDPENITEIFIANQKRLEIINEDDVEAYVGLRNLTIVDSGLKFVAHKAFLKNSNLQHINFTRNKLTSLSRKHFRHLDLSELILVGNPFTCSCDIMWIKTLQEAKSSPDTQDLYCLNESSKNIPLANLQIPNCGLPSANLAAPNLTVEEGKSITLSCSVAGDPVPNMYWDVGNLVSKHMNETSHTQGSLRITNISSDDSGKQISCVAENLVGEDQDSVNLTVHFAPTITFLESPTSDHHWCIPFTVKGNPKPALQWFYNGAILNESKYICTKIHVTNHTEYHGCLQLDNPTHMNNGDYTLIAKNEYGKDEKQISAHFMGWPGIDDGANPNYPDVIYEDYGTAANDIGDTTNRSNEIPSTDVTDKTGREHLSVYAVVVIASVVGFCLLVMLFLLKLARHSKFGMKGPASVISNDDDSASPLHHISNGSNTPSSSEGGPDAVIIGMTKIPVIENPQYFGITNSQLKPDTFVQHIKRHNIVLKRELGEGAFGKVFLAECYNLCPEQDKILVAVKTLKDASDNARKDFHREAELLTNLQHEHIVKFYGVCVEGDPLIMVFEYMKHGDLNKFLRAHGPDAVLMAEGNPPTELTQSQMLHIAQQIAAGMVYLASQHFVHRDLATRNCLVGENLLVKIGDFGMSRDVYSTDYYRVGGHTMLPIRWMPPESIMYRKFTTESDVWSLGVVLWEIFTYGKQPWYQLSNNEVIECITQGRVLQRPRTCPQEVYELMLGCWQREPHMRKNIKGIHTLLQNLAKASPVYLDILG
assay details: cell-free kinase inhibition assay, cabozantinib dose-dependence
Type: biochemical
parameter measured: IC50

Please give measured IC50 of the following entry: COc1cc2nccc(Oc3ccc(NC(=O)C4(C(=O)Nc5ccc(F)cc5)CC4)cc3)c2cc1OC [cabozantinib] < 50 nM

====

target under test: NTRK1 (Homo sapiens)
Sequence (P04629 33-796): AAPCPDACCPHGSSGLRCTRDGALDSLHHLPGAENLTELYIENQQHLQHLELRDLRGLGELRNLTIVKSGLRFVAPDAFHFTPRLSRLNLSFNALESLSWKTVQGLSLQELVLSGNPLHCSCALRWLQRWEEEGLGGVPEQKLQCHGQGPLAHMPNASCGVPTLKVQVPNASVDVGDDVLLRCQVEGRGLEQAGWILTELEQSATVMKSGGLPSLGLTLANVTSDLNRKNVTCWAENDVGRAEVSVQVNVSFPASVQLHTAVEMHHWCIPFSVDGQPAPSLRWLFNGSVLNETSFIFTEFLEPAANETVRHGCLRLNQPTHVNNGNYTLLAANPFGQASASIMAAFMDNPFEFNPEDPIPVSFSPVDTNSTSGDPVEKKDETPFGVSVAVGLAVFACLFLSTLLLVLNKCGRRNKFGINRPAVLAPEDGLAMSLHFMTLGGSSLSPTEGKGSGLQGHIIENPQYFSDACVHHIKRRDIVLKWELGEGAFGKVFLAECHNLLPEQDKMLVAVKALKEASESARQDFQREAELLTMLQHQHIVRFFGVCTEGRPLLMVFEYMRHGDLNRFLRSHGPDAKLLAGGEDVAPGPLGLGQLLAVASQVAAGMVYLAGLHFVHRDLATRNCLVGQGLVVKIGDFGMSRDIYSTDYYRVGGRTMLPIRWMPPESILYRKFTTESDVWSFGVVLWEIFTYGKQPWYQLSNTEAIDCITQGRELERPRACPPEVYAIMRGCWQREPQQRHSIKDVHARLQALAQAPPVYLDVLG
parameter measured: pIC50
Just the number, please; pIC50 means minus log10 of the concentration in mol/L.

Please give measured pIC50 of the following entry: COc1cc2nccc(Oc3ccc(NC(=O)C4(C(=O)Nc5ccc(F)cc5)CC4)cc3)c2cc1OC [cabozantinib] 7.96

====

target under test: FGFR4 (Homo sapiens, UniProt P22455)
Sequence (P22455 22-802): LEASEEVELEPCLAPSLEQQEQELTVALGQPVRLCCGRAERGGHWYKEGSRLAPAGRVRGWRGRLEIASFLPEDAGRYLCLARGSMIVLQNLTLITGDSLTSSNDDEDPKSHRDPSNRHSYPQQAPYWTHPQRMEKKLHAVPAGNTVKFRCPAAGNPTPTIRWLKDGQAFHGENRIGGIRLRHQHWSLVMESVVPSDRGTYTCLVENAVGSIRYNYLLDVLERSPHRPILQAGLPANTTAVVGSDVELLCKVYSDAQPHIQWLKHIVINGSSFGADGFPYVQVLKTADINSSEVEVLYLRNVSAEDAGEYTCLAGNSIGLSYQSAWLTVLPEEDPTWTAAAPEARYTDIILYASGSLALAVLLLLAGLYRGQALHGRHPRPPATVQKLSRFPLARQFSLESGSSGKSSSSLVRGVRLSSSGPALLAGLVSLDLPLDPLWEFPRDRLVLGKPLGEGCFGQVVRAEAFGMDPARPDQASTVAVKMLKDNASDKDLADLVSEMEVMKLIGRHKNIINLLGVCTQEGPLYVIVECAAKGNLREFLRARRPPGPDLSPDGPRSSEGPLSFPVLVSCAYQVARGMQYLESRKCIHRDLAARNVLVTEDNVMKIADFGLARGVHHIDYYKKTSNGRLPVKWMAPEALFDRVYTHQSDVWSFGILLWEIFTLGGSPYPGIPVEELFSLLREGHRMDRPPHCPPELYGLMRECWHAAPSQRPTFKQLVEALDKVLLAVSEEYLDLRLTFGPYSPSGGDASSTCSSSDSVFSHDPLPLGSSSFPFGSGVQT
assay details: cell-free kinase inhibition assay, cabozantinib dose-dependence
Format: biochemical
pIC50: −log10 of the molar value.
parameter measured: pIC50

Please give measured pIC50 of the following entry: COc1cc2nccc(Oc3ccc(NC(=O)C4(C(=O)Nc5ccc(F)cc5)CC4)cc3)c2cc1OC [cabozantinib] < 5.52

====

parameter measured: IC50

Tell me IC50 of COc1cc2nccc(Oc3ccc(NC(=O)C4(C(=O)Nc5ccc(F)cc5)CC4)cc3)c2cc1OC [cabozantinib] when tested on IGF1R (Homo sapiens). > 3 µM

====

target under test: DDR1 (Homo sapiens)
Sequence (Q08345 19-913): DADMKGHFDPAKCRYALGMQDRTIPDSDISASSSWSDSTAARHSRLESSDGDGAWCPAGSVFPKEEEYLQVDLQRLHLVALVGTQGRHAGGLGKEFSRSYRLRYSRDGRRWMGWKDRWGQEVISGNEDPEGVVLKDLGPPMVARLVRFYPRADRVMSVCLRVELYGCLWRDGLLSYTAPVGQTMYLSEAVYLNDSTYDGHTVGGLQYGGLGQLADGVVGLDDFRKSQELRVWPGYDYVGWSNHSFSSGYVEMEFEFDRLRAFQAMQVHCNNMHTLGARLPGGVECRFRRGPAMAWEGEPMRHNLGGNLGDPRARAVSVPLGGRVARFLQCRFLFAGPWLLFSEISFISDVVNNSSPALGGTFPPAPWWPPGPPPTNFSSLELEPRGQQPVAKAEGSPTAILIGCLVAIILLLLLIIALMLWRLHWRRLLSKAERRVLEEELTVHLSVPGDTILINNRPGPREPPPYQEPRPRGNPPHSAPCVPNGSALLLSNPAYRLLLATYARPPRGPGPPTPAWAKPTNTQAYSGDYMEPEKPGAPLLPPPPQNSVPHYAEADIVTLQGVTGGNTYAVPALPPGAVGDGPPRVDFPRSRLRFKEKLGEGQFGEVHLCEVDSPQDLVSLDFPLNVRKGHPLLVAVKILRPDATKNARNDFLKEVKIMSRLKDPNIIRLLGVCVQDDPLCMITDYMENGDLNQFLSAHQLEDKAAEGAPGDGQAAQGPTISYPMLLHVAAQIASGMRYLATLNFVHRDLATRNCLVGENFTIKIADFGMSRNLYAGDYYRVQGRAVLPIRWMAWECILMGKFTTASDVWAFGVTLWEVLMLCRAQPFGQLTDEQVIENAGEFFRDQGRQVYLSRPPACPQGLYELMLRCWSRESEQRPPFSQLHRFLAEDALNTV
assay details: cell-free kinase inhibition assay, cabozantinib dose-dependence
Type: biochemical
condition: minimum of 3 x 10-dose curves
pIC50: −log10 of the molar value.
parameter measured: pIC50

Please give measured pIC50 of the following entry: COc1cc2nccc(Oc3ccc(NC(=O)C4(C(=O)Nc5ccc(F)cc5)CC4)cc3)c2cc1OC [cabozantinib] > 6.82

====

Target chain: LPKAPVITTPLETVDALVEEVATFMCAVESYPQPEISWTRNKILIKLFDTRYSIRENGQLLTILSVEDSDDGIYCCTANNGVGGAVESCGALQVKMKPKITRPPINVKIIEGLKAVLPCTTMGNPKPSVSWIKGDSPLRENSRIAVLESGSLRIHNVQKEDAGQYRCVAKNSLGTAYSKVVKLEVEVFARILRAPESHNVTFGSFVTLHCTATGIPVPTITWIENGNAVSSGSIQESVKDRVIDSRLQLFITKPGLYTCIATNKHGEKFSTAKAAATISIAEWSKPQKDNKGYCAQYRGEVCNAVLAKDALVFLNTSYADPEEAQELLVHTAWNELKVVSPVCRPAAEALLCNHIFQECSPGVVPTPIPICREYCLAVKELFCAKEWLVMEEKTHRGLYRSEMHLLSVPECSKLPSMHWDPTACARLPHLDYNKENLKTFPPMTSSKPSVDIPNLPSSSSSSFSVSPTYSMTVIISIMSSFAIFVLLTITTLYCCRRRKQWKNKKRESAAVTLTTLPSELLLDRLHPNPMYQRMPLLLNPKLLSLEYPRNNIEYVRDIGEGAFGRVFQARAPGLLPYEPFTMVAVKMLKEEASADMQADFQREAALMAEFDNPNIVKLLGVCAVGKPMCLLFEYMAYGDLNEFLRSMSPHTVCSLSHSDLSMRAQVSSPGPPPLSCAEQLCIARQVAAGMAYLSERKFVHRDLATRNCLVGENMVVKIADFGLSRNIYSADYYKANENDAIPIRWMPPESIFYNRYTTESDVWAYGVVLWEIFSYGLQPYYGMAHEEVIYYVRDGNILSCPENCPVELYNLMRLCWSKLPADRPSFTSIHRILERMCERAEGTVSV
pIC50: −log10 of the molar value.
parameter measured: pIC50

Please give measured pIC50 of the following entry: COc1cc2nccc(Oc3ccc(NC(=O)C4(C(=O)Nc5ccc(F)cc5)CC4)cc3)c2cc1OC [cabozantinib] < 5.52

The measurements presented in this section are drawn from paper PMC8297783.
